# system: factor Xa (Homo sapiens)
# Construct: purchased Bio-techne
# assay notes: colorimetric enzyme inhibition assay, factor Xa (Z-D-Arg-Gly-Arg-pNA)
# Format: biochemical
# run parameters: from IC50 by Cheng-Prusoff; n.a. = not active, <80% inhibition at 20 µM
property label: Ki Factor Xa

In [3]: df
Out[3]:
                                   molecule           value_reported
0  CC(=O)NCC(=O)NC(C(=O)NC(C)C(=O)NC(CC1CCC(NC(=N)N)CC1)C(=O)c1nc2ccccc2s1)C(C)O (stereo not shown)          did not inhibit
1  CC(=O)NCC(=O)N[C@H](C(=O)N[C@@H](C)C(=O)N[C@@H](Cc1cccc(NC(=N)N)c1)C(=O)c1nc2ccccc2s1)[C@H](C)O  did not show inhibition
2  CC(=O)NCC(=O)NC(C(=O)NC(C)C(=O)NC(Cc1ccc(NC(=N)N)cc1)C(=O)c1nc2ccccc2s1)C(C)O (stereo not shown)          did not inhibit
3  CC(=O)NCC(=O)NC(C(=O)NC(C)C(=O)NC(CCCCNC(=N)N)C(=O)c1nc2ccccc2s1)C(C)O (stereo not shown)  did not show inhibition

* * *

# system: factor Xa (Homo sapiens, UniProt P00742)
# Construct: purchased Bio-techne
# Sequence (P00742 235-488 limits assumed): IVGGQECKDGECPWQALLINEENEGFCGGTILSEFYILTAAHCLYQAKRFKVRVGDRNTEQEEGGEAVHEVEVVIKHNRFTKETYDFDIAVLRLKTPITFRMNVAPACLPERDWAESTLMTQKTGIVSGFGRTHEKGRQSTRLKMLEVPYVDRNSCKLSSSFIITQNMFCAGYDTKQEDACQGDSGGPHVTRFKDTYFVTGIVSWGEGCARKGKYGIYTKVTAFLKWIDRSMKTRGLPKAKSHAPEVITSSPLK
# Sequence (P00742 41-179 partner limits assumed): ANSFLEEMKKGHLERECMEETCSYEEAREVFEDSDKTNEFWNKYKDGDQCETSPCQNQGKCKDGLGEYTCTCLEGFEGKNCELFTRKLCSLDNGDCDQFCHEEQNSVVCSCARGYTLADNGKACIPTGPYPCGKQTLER
# assay notes: colorimetric enzyme inhibition assay, factor Xa (Z-D-Arg-Gly-Arg-pNA)
# Format: biochemical
# run parameters: from IC50 by Cheng-Prusoff; n.a. = not active, <80% inhibition at 20 µM
property label: Ki (nM)

                                   compound  value_reported
0  CC(=O)NCC(=O)NC(C(=O)NC(C)C(=O)NC(CCCNC(=N)N)C(=O)c1nc2ccc(Br)cc2s1)C(C)O (stereo not drawn) [Compound 14d]            2850
1  CC(=O)NCC(=O)NC(C(=O)NC(C)C(=O)NC(CCCNC(=N)N)C(=O)c1nc2ccccc2s1)C(C)O [Compound 14a, Ac-Gly-L-Thr-L-Ala-L-Arg-kbt]            3360
2  CC(=O)NCC(=O)NC(C(=O)NC(C)C(=O)NC(CCCNC(=N)N)C(=O)c1nc2ccc(Cl)cc2s1)C(C)O (stereo not drawn) [Compound 14c]            2450

* * *

# system: thrombin (Homo sapiens)
# Construct: purchased Bio-techne
# assay notes: fluorometric enzyme inhibition assay, thrombin (Z-Gly-Gly-Arg-AMC)
# Format: biochemical
# run parameters: from IC50 by Cheng-Prusoff; n.a. = not active, <80% inhibition at 20 µM
pKi: −log10 of the molar value.
property label: pKi

In [3]: df
Out[3]:
                                   molecule  property_label  value_reported
0  CC(=O)NCC(=O)NC(C(=O)NC(C)C(=O)NC(CCCNC(=N)N)C(=O)c1nc2ccc(Br)cc2s1)C(C)O (stereo not drawn) [Compound 14d]             pKi            6.35

P: CC(=O)NCC(=O)NC(C(=O)NC(C)C(=O)NC(CCCNC(=N)N)C(=O)c1nc2ccc(Cl)cc2s1)C(C)O (stereo not drawn) [Compound 14c]
Q: CC(=O)NCC(=O)NC(C(=O)NC(C)C(=O)NC(CCCNC(=N)N)C(=O)c1nc2ccccc2s1)C(C)O [Compound 14a, Ac-Gly-L-Thr-L-Ala-L-Arg-kbt]
Challenge: Given P and given Q , which shows the smaller recorded pKi? When you have decided, please share the label of that item.
Response given: Q

* * *

# system: TMPRSS2 (Homo sapiens, UniProt O15393)
# Construct: purchased Cusabio
# Sequence (O15393 whole entry): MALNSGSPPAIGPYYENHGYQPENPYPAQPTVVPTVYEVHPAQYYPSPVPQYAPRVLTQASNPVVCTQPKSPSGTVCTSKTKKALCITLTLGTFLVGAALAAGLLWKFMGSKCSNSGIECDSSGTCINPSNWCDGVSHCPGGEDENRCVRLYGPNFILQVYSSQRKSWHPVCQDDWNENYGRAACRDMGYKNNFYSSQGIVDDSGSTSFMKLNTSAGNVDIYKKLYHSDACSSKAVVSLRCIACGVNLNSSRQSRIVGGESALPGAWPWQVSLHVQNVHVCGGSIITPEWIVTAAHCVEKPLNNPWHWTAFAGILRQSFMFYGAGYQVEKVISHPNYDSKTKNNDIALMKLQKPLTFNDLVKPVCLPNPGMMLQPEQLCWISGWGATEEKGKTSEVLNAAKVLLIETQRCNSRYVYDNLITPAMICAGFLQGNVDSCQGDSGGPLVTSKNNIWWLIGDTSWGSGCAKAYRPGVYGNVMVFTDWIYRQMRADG
# assay notes: fluorometric enzyme inhibition assay, TMPRSS2 (Boc-Gln-Ala-Arg-AMC)
# Format: biochemical
# run parameters: from IC50 by Cheng-Prusoff; n.a. = not active, <80% inhibition at 20 µM
pKi: −log10 of the molar value.
property label: pKi

compound	pKi
CC(=O)N[C@@H](CC(N)=O)C(=O)N[C@@H](CC1CCCCC1)C(=O)N[C@@H](Cc1ccc(NC(=N)N)cc1)C(=O)c1nc2ccccc2s1 [Compound 32]	7.47

A: CC(=O)NCC(=O)NC(C(=O)NC(C)C(=O)NC(CCCNC(=N)N)C(=O)c1nc2ccccc2s1)C(C)O [Compound 14a, Ac-Gly-L-Thr-L-Ala-L-Arg-kbt]
B: CC(=O)NCC(=O)NC(C(=O)NC(C)C(=O)NC(CCCNC(=N)N)C(=O)c1nc2ccc(Cl)cc2s1)C(C)O (stereo not drawn) [Compound 14c]
C: CC(=O)N[C@@H](CC(N)=O)C(=O)N1CCC[C@H]1C(=O)N[C@@H](CC1CCC(NC(=N)N)CC1)C(=O)c1nc2ccccc2s1 (stereo partly drawn) [Compound 39]
D: CC(=O)N[C@@H](CC(N)=O)C(=O)N[C@@H](Cc1ccccc1)C(=O)N[C@@H](Cc1ccc(NC(=N)N)cc1)C(=O)c1nc2ccccc2s1 [Compound 31]
Challenge: Put the items in order so that reported pKi rises from first to last. // ordering of labels required in reply
Response given: C, B, A, D
(C: 7.36, B: 8.05, A: 8.30, D: 9.40)

* * *

# system: uPA (Homo sapiens, UniProt P00749)
# Construct: purchased Sigma Aldrich
# assay notes: fluorometric enzyme inhibition assay, uPA (Z-Gly-Gly-Arg-AMC)
# Assay type: biochemical
# run parameters: quotient Ki uPA / Ki TMPRSS2
property label: Selectivity index [SI] uPA

In [3]: df
Out[3]:
                                   molecule              property_label  value_reported
0  CC(=O)N[C@@H](CC(N)=O)C(=O)N1CCC[C@H]1C(=O)N[C@@H](Cc1ccc(NC(=N)N)cc1)C(=O)c1nc2ccccc2s1  Selectivity index [SI] uPA              96

1: CC(=O)N[C@@H](CC(N)=O)C(=O)N[C@@H](CC1CCCCC1)C(=O)N[C@@H](Cc1ccc(NC(=N)N)cc1)C(=O)c1nc2ccccc2s1
2: CC(=O)N[C@@H](CC(N)=O)C(=O)N1CCC[C@H]1C(=O)N[C@@H](CC1CCC(NC(=N)N)CC1)C(=O)c1nc2ccccc2s1 (some centres unmarked)
Challenge: Higher Selectivity index [SI] uPA between 1 and 2 ? When you have decided, please share the label of that item.
Response given: 1
